The entries below are paired with their reported Kd.
Molecular target: human SOS1 (Homo sapiens (Human), UniProt Q07889)
Sequence (Q07889 564-1049): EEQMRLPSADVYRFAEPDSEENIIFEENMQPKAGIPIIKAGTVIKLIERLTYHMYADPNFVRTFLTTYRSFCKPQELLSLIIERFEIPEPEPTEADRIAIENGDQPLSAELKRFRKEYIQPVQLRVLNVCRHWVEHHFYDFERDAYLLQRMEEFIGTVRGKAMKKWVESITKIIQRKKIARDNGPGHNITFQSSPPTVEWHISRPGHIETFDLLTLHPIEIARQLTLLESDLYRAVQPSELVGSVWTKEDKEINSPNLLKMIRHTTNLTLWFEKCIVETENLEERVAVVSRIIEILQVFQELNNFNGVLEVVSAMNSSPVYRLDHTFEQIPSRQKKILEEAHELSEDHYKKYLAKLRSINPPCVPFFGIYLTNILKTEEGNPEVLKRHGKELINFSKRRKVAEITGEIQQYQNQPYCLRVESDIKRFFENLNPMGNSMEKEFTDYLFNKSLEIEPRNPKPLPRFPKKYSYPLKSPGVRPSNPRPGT
Write the number in nM without appending the unit.

Consider the following illustrative entries.
COMPOUND	RECORDED NUMBER
C[C@@H](NC(=O)c1cn(C2(C(F)F)CC2)c(=O)cc1NCCN(C)C)c1cccc(C(F)F)c1F	34
C[C@@H](NC(=O)c1cn([C@H]2C[C@H](F)C2)c(=O)cc1N[C@H]1[C@@H]2CN(C)C[C@@H]21)c1cccc(C(F)F)c1F	7
C[C@@H](NC(=O)c1cn([C@H]2CC23CCC3)c(=O)cc1N[C@H]1[C@@H]2CN(C)C[C@@H]21)c1cccc(C(F)F)c1F (single isomer, unassigned)	6

Qu. Using the record for C[C@@H](NC(=O)c1cn(C2CC(F)(F)C2)c(=O)cc1N[C@H]1[C@@H]2CN(C)C[C@@H]21)c1cccc(C(F)F)c1F , state its measured Kd.
Ans. 10
